Data origin: ChEMBL document CHEMBL1134672

experiment-summary: Bioavailability in rat
Type: ADME, organism-based
assay-context: in vivo
quantity: bioavailability (%)
Field format: number, assumed %, no unit text.

Form field bioavailability, entry CC1(C)CCCC1CNC(=O)c1ccc(-c2noc(CCC(F)(F)F)n2)cc1 (single isomer, unassigned; form 2) : 23

###

# maps each entry to its log10 IC50
target-or-system: Potassium voltage-gated channel subfamily KQT member 1 (Cavia porcellus)
Sequence (O70344 whole entry): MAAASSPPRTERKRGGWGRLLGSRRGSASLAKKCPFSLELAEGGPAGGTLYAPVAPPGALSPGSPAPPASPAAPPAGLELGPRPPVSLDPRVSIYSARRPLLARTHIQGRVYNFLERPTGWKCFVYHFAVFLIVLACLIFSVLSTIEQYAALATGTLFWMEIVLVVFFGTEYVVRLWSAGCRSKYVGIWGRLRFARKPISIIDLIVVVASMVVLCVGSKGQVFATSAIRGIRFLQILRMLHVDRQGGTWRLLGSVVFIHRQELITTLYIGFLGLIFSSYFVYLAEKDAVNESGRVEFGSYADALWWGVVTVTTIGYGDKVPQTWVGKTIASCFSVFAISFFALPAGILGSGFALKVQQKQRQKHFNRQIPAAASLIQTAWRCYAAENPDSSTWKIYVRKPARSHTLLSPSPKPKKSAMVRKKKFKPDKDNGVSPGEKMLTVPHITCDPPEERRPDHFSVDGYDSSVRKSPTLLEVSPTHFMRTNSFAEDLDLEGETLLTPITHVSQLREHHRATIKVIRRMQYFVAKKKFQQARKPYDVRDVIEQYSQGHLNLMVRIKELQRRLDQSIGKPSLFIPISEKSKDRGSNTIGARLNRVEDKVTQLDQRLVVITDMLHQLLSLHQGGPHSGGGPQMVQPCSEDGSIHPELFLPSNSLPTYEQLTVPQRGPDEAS
experiment-summary: Molar concentration required to inhibit 50% of the activating delayed-rectifier K+ current in isolated guinea pig ventricular myocytes
Please note: log10 values; quantity IC50; unit nM.

Field: example entries. Status: answers known.
Form field log10 IC50, entry CCCc1noc(-c2ccc(C(=O)NCC3CCCC3(C)C)cc2)n1 (single isomer, unassigned; form 2) : 1.00

Form field log10 IC50, entry CC(C)(C)CCNC(=O)c1ccc(-n2ccc3ccccc32)cc1 : 2.41

Form field log10 IC50, entry CCCCCCOc1ccc(C(=O)NCC2CCCCC2(C)C)cc1 (stereo in doubt; 13(A)) : 3.15

Form field log10 IC50, entry CCCCc1noc(-c2ccc(C(=O)NC[C@H]3CCCC3(C)C)cc2)n1 : 0.30

Form field log10 IC50, entry CCCCc1noc(-c2ccc(C(=O)NC[C@@H]3CCCC3(C)C)cc2)n1 : 0.95

***
Form field log10 IC50, entry CCCCCCOc1ccc(C(=O)NCCN(CC)CC)cc1 : 3.54

Form field log10 IC50, entry Cc1noc(-c2ccc(C(=O)NCC3CCCC3(C)C)cc2)n1 (stereo in doubt; 21(A)) : 2.34

Form field log10 IC50, entry CC1(C)CCCC1CNC(=O)c1ccc(-c2noc(CCC(F)(F)F)n2)cc1 (single isomer, unassigned; form 1) : 1.43

###

target-or-system: Potassium voltage-gated channel subfamily KQT member 1 (Cavia porcellus, UniProt O70344)
Sequence (O70344 whole entry): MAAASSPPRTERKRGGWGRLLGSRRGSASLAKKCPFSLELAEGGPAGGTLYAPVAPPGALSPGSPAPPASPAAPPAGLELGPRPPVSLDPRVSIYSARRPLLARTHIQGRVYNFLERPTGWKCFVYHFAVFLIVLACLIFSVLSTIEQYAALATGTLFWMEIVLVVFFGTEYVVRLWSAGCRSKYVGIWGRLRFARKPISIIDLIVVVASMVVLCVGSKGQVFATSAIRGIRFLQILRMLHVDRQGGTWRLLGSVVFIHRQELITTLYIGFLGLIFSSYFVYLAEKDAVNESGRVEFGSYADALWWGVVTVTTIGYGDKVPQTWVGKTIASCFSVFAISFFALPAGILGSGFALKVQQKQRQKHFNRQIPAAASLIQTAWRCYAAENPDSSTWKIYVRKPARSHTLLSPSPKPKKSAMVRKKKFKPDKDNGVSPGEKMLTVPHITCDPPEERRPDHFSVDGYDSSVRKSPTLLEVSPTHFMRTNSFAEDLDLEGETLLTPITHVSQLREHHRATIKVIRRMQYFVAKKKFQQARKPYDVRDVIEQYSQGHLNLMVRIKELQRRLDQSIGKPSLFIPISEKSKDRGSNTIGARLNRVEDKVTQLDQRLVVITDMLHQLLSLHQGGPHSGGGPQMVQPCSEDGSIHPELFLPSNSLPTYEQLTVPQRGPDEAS
experiment-summary: Molar concentration required to inhibit 50% of the activating delayed-rectifier K+ current in isolated guinea pig ventricular myocytes
quantity: pIC50
In plain terms, pIC50 is the concentration in mol/L turned into minus its base-10 logarithm.

Form field pIC50, entry CCCCCCOc1ccc(C(=O)NCC2CCCC(C)(C)C2)cc1 (stereo not drawn) : 6.43

***
Form field pIC50, entry CCCCCCOc1ccc(C(=O)NC2CCC(C)(C)C2)cc1 (stereo not drawn) : 6.44
